Every entry's value here was drawn from patent US20250129169A1.

tested_target: T1, human IFNAR2 ECD (human, UniProt P48551 27-243)
T1 construct: extracellular domain; Immobilized for SPR under the same conditions as for the IL-2 specific VHHs
T1 sequence (looked up): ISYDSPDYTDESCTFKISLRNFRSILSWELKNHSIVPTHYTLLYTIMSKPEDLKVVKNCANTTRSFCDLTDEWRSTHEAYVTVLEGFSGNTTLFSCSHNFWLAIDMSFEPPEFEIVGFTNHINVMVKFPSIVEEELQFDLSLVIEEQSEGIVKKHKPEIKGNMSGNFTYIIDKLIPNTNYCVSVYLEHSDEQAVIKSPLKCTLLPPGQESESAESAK
assay_summary: SPR; human IFNAR2 ECD immobilized, VHH as analyte; binding constants from kinetic fits
readout_kind: Kd (nM)
Only the number, expressed in nM, is required.

binder | units_symbol | Kd
IFNAR2-VHH1 (VHH, Member of the group m12 (IFNAR2 VHHs); also called VHH1 (IFNAR2 VHH)) VHH: QVQLQESGGGSVQPGGSLRLSCAASGFTFSNYIMSWVRQAPGKGLEWVSAISGGGNTYYTDSVKGRFTISRDNAKNTLYLQLNSLKTEDTAMYYCAQNWWVAGRSPNPPGQGTQVTVSS | nM | 0.31
IFNAR2-VHH5 (VHH, Member of the group m12 (IFNAR2 VHHs); also called VHH5 (IFNAR2 VHH)) VHH: QVQLQESGGGLVQPGGSLTLSCAASGFTFRNHIMSWVRQAPGKGLEWVSAISSGGGNTYYADSVKGRFTISRDNAKSTLYLQLNSLKTEDTAMYYCTKDWARPPYSDFLAPQAQGTQVTVSS | nM | 0.23
IFNAR2-VHH2 (VHH, Member of the group m12 (IFNAR2 VHHs); also called VHH2 (IFNAR2 VHH)) VHH: QVQLQESGGGLVQPGGSLRLSCAASGFTFSDYIMTWVRQAPGKGLEWVSSINNGGRSTYYADSVKGRFTISRDNAKNTLYLQLNSLKIEDTAMYYCARDVTCWGARTGCRVSGGTQVTVSS | nM | 0.78

Proceeding to the next binder to report its Kd.
[in] Quote Kd reported for IFNAR2-VHH10 (VHH, Member of the group m12 (IFNAR2 VHHs); also called VHH10 (IFNAR2 VHH)) VHH: QVQLQESGGGLVQPGGSLRLSCAASGFTFSNHIMSWVRQAPGKGLEWVSAINSGGGSTYYRDSVKGRFTISRDNAKNTLYLQLNSLKTEDTAMYYCAKDWWRYGSDKPPGQGTQVTVSS please.
[out] 0.33
